Molecular target: human serum albumin (HSA) (Homo sapiens, UniProt P02768)
Construct: purchased H13H-2433
Sequence (P02768 25-609): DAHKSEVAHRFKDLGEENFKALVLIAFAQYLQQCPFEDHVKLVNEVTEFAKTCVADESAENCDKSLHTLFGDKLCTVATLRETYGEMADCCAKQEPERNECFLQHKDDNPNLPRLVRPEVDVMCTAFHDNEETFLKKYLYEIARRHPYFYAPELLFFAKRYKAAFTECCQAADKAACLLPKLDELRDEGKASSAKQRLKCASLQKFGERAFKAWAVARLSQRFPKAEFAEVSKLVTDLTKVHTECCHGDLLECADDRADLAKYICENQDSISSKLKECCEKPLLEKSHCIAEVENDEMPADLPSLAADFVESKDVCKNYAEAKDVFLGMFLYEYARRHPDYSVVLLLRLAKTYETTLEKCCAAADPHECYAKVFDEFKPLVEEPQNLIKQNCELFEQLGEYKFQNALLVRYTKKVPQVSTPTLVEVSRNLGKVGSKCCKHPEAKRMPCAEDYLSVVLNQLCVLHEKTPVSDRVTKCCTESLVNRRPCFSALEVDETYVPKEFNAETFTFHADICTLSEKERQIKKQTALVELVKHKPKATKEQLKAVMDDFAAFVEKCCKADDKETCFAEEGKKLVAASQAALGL
Experiment: Binding to HSA on a Chiralpak HSA column
Format: in vitro ADME
Conditions: calibration with nine reference substances
*1 amine or outer side, *2 acyl side, *3 side chain or, on linkers, in order; H or OH if unused. Where a SMILES comes first, the peptide text is derived from it. Side-chain parts run from the residue outwards. [ ]: non-standard residue; d: D form. The star is where a group is joined. X1 = O=C(O)CC[C@H](NC(=O)N[C@@H](CCC(=O)N[C@H](CCCN*)C(=O)O)C(=O)O)C(=O)O; Benzoyl(4-SiFtBu2) = CC(C)(C)[Si](F)(c1ccc(C(=O)*)cc1)C(C)(C)C; Suc = O=C(CCC(=O)[*:2])[*:1]; dDap = NC[C@@H](N)C(=O)O
Binding to HSA values for the compounds below.

Report Binding to HSA for CC(C)(C)[Si](F)(c1ccc(C(=O)NC[C@@H](NC(=O)[C@@H](CCCCN)NC(=O)[C@@H](CCC(=O)O)NC(=O)[C@H](N)CCC(=O)O)C(=O)N[C@H](CCCCNC(=O)CCC(=O)NCCC[C@@H](NC(=O)CC[C@H](NC(=O)N[C@@H](CCC(=O)O)C(=O)O)C(=O)O)C(=O)O)C(=O)O)cc1)C(C)(C)C [SiFA-PSMA ligand 03 f] (H-[dE][dE][dK][dDap](Benzoyl(4-SiFtBu2))[dK]([Suc-X1])-OH)
96.9%

Give a short answer stating reported Binding to HSA for CC(C)(C)[Si](F)(c1ccc(C(=O)NC[C@@H](NC(=O)[C@@H](CCC(=O)O)NC(=O)[C@@H](CCC(=O)O)NC(=O)[C@H](N)CCC(=O)O)C(=O)N[C@H](CCCCNC(=O)CCC(=O)NCCC[C@@H](NC(=O)CC[C@H](NC(=O)N[C@@H](CCC(=O)O)C(=O)O)C(=O)O)C(=O)O)C(=O)O)cc1)C(C)(C)C [SiFA-PSMA ligand 03 b] (H-[dE][dE][dE][dDap](Benzoyl(4-SiFtBu2))[dK]([Suc-X1])-OH) .
98.9%

Give a short answer stating reported Binding to HSA for C[C@H](O)[C@@H](NC(=O)CC[C@H](NC(=O)N[C@@H](CCC(=O)O)C(=O)O)C(=O)O)C(=O)N[C@H](CNC(=O)c1ccc([Si](F)(C(C)(C)C)C(C)(C)C)cc1)C(=O)N[C@H](CCCCNC(=O)CCC(=O)NCCC[C@@H](NC(=O)CC[C@H](NC(=O)N[C@@H](CCC(=O)O)C(=O)O)C(=O)O)C(=O)O)C(=O)O .
≥98.9%

###

Examples of compounds with documented Binding to HSA follow.
Target: human serum albumin (HSA) (Homo sapiens, UniProt P02768)
Construct: purchased H13H-2433
Experiment: Binding to HSA on a Chiralpak HSA column
Format: in vitro ADME
Settings: calibration with nine reference substances
*1 amine or outer side, *2 acyl side, *3 side chain or, on linkers, in order; H or OH if unused. Where a SMILES comes first, the peptide text is derived from it. Side-chain parts run from the residue outwards. [ ]: non-standard residue; d: D form. The star is where a group is joined. X1 = O=C(O)CC[C@H](NC(=O)N[C@@H](CCC(=O)N[C@H](CCCN*)C(=O)O)C(=O)O)C(=O)O; Benzoyl(4-SiFtBu2) = CC(C)(C)[Si](F)(c1ccc(C(=O)*)cc1)C(C)(C)C; dCit = NC(=O)NCCC[C@@H](N)C(=O)O; Suc = O=C(CCC(=O)[*:2])[*:1]; dDap = NC[C@@H](N)C(=O)O
Response body: numeric value in %, unit text excluded.

Check out these entries, answers already filled in.
{"compound": "C[C@H](O)[C@@H](NC(=O)[C@@H](CCC(=O)O)NC(=O)[C@H](N)CCC(=O)O)C(=O)N[C@H](CNC(=O)c1ccc([Si](F)(C(C)(C)C)C(C)(C)C)cc1)C(=O)N[C@H](CCCCNC(=O)CCC(=O)NCCC[C@@H](NC(=O)CC[C@H](NC(=O)N[C@@H](CCC(=O)O)C(=O)O)C(=O)O)C(=O)O)C(=O)O [SiFA-PSMA ligand 03 h] (H-[dE][dE][dT][dDap](Benzoyl(4-SiFtBu2))[dK]([Suc-X1])-OH)", "unit text": "%", "Binding to HSA": 97.8}
{"compound": "CC(C)(C)[Si](F)(c1ccc(C(=O)NC[C@@H](NC(=O)[C@@H](CCCN)NC(=O)CC[C@H](NC(=O)N[C@@H](CCC(=O)O)C(=O)O)C(=O)O)C(=O)N[C@H](CCCCNC(=O)CCC(=O)NCCC[C@@H](NC(=O)CC[C@H](NC(=O)N[C@@H](CCC(=O)O)C(=O)O)C(=O)O)C(=O)O)C(=O)O)cc1)C(C)(C)C [SiFA-PSMA ligand 01 f]", "unit text": "%", "Binding to HSA": 98.9}
{"compound": "CC(C)(C)[Si](F)(c1ccc(C(=O)NC[C@@H](NC(=O)[C@H](CCCCN)NC(=O)CC[C@H](NC(=O)N[C@@H](CCC(=O)O)C(=O)O)C(=O)O)C(=O)N[C@H](CCCCNC(=O)CCC(=O)NCCC[C@@H](NC(=O)CC[C@H](NC(=O)N[C@@H](CCC(=O)O)C(=O)O)C(=O)O)C(=O)O)C(=O)O)cc1)C(C)(C)C [SiFA-PSMA ligand 01 h]", "unit text": "%", "Binding to HSA": 98.7}
{"compound": "CC(C)(C)[Si](F)(c1ccc(C(=O)NC[C@@H](NC(=O)[C@@H](CCCCN)NC(=O)CC[C@H](NC(=O)N[C@@H](CCC(=O)O)C(=O)O)C(=O)O)C(=O)N[C@H](CCCCNC(=O)CCC(=O)NCCC[C@@H](NC(=O)CC[C@H](NC(=O)N[C@@H](CCC(=O)O)C(=O)O)C(=O)O)C(=O)O)C(=O)O)cc1)C(C)(C)C [SiFA-PSMA ligand 01 g]", "unit text": "%", "Binding to HSA": 98.9}
{"compound": "CC(C)(C)[Si](F)(c1ccc(C(=O)NC[C@@H](NC(=O)CNC(=O)CC[C@H](NC(=O)N[C@@H](CCC(=O)O)C(=O)O)C(=O)O)C(=O)N[C@H](CCCCNC(=O)CCC(=O)NCCC[C@@H](NC(=O)CC[C@H](NC(=O)N[C@@H](CCC(=O)O)C(=O)O)C(=O)O)C(=O)O)C(=O)O)cc1)C(C)(C)C [SiFA-PSMA ligand 01 i]", "unit text": "%", "Binding to HSA": 98.9}
{"compound": "CC(C)(C)[Si](F)(c1ccc(C(=O)NC[C@@H](NC(=O)[C@@H](CC(=O)O)NC(=O)[C@@H](CCC(=O)O)NC(=O)[C@H](N)CCC(=O)O)C(=O)N[C@H](CCCCNC(=O)CCC(=O)NCCC[C@@H](NC(=O)CC[C@H](NC(=O)N[C@@H](CCC(=O)O)C(=O)O)C(=O)O)C(=O)O)C(=O)O)cc1)C(C)(C)C [SiFA-PSMA ligand 03 a] (H-[dE][dE][dD][dDap](Benzoyl(4-SiFtBu2))[dK]([Suc-X1])-OH)", "unit text": "%", "Binding to HSA": 98.8}
{"compound": "CC(C)(C)[Si](F)(c1ccc(C(=O)NC[C@@H](NC(=O)[C@@H](CN)NC(=O)[C@@H](CCC(=O)O)NC(=O)[C@H](N)CCC(=O)O)C(=O)N[C@H](CCCCNC(=O)CCC(=O)NCCC[C@@H](NC(=O)CC[C@H](NC(=O)N[C@@H](CCC(=O)O)C(=O)O)C(=O)O)C(=O)O)C(=O)O)cc1)C(C)(C)C [SiFA-PSMA ligand 03 d] (H-[dE][dE][dDap][dDap](Benzoyl(4-SiFtBu2))[dK]([Suc-X1])-OH)", "unit text": "%", "Binding to HSA": 97.2}

Now look at this one.
Report measured Binding to HSA; entry is CC(C)(C)[Si](F)(c1ccc(C(=O)NC[C@@H](NC(=O)[C@@H](CCCNC(N)=O)NC(=O)[C@@H](CCC(=O)O)NC(=O)[C@H](N)CCC(=O)O)C(=O)N[C@H](CCCCNC(=O)CCC(=O)NCCC[C@@H](NC(=O)CC[C@H](NC(=O)N[C@@H](CCC(=O)O)C(=O)O)C(=O)O)C(=O)O)C(=O)O)cc1)C(C)(C)C [SiFA-PSMA ligand 03 c] (H-[dE][dE][dCit][dDap](Benzoyl(4-SiFtBu2))[dK]([Suc-X1])-OH)
98.6

###

Molecular target: human serum albumin (HSA) (Homo sapiens, UniProt P02768)
Construct: purchased H13H-2433
Experiment: Binding to HSA on a Chiralpak HSA column
Assay type: in vitro ADME
Details: calibration with nine reference substances
Description: For the determination of human serum albumin (HSA) binding, a Chiralpak HSA column (50×3 mm, 5 μm, H13H-2433) was used at a constant flow rate of 0.5 mL/min. […] The reference substances (Table 1) as well as the analyzed SiFA-PSMA ligands were dissolved in a mixture of solvent C/solvent D (1:1, v/v, 0.5 mg/mL) and eluted from the HSA column (0-3 min: 100% C, 3-20 min: 20% D in C, λ=254 nm). […]
Binding to HSA: recorded values

{"molecule": "CC(C)(C)[Si](F)(c1ccc(C(=O)N[C@H](CC(=O)N[C@H](CCCCNC(=O)CCC(=O)NCCC[C@@H](NC(=O)CC[C@H](NC(=O)N[C@@H](CCC(=O)O)C(=O)O)C(=O)O)C(=O)O)C(=O)O)C(=O)N[C@H](CCCCNC(=O)CCC(=O)NCCC[C@@H](NC(=O)CC[C@H](NC(=O)N[C@@H](CCC(=O)O)C(=O)O)C(=O)O)C(=O)O)C(=O)O)cc1)C(C)(C)C [SiFA-PSMA ligand 06]", "Binding to HSA": "≥98.9%"}

Please turn your attention to the following entry.
Tell me Binding to HSA reported for CC(C)(C)[Si](F)(c1ccc(C(=O)NC[C@@H](NC(=O)CCCCCNC(=O)CC[C@@H](NC(=O)N[C@H](CCC(=O)O)C(=O)O)C(=O)O)C(=O)N[C@H](CCCCNC(=O)CCC(=O)NCCC[C@@H](NC(=O)CC[C@H](NC(=O)N[C@@H](CCC(=O)O)C(=O)O)C(=O)O)C(=O)O)C(=O)O)cc1)C(C)(C)C [SiFA-PSMA ligand 02 d]
≥98.9%
